Provide the reported Papp at 16 h, 10 μM of each item.
- ASSAY INFO: Permeability assay (PAMPA)
- Type: in vitro ADME
- PARTICULARS: pH 7.4, 25 °C, <10 low, >10 high permeability
- Protocol: GCN2 compound permeability was determined by PAMPA and was performed by Pharmaron, Inc. (Beijing, China). All compounds and control stock solutions were prepared in DMSO at a concentration of 10 mM. Testosterone and methotrexate were used as control compounds. […] The compound concentrations were determined by LC/MS/MS. The effective permeability (Pe), in units of centimeter per second were calculated using the following equation: logPe=logC×−ln1−drugacceptor/drugequilibrium
Give bare numbers, in ×10⁻⁶ cm/s.

Below: 5 molecules and their reported Papp at 16 h, 10 μM.
MOLECULE: COC(=O)c1ccc(-n2nnc3cnc(Nc4cnn([C@H]5CC[C@H](O)CC5)c4)nc32)cc1 [Compound 9]
Papp at 16 h, 10 μM [×10⁻⁶ cm/s]: 2.29
//
MOLECULE: CCOc1ccc(-n2nnc3cnc(Nc4cnn(CC)c4)nc32)cc1 [Compound 2]
Papp at 16 h, 10 μM [×10⁻⁶ cm/s]: 15.1
//
MOLECULE: O[C@H]1CC[C@H](n2cc(Nc3ncc4nnn(-c5ccc(Cl)c(F)c5)c4n3)cn2)CC1 [Compound 8]
Papp at 16 h, 10 μM [×10⁻⁶ cm/s]: 4.68
//
MOLECULE: CCn1cc(Nc2ncc3nnn(-c4ccc(C(=O)OC)cc4)c3n2)cn1 [Compound 1]
Papp at 16 h, 10 μM [×10⁻⁶ cm/s]: 16
//
MOLECULE: COC(=O)c1ccc(-n2nnc3cnc(Nc4cnn(C5CCOCC5)c4)nc32)cc1 [Compound 5]
Papp at 16 h, 10 μM [×10⁻⁶ cm/s]: 10.5

# input for lookup
Ask: Consider the molecule shown here: Fc1cc(-n2nnc3cnc(Nc4cnn(C5CCOCC5)c4)nc32)ccc1Cl [Compound 4] What is its recorded Papp at 16 h, 10 μM?
Result: 2.19
